- assay_procedure: Aqueous solubility of the compound
- Format: physicochemical
- details: water (aqueous)
Consider the following molecules; for each one, report its solubility.
The response must be a number in µg/mL with no trailing unit.

Query: What does the record list as solubility for "CC(C)=CCC[C@]1(C)C=Cc2c(O)c3c(c(CC=C(C)C)c2O1)O[C@]12C(=C[C@@H]4C[C@H]1C(C)(C)O[C@@]2(C/C=C(/C)C(=O)OCCCCN1CCOCC1)C4=O)C3=O" ?
Reply: 1170

Query: What do we get for "CC(C)=CCC[C@]1(C)C=Cc2c(O)c3c(c(CC=C(C)C)c2O1)O[C@]12C(=C[C@@H]4C[C@H]1C(C)(C)O[C@@]2(C/C=C(/C)C(=O)OCCN1CCNCC1)C4=O)C3=O" ?
Reply: 1360

Query: What do we get for "CC(C)=CCC[C@]1(C)C=Cc2c(O)c3c(c(CC=C(C)C)c2O1)O[C@]12C(=C[C@@H]4C[C@H]1C(C)(C)O[C@@]2(C/C=C(/C)C(=O)OCCCCN1CCNCC1)C4=O)C3=O" ?
Reply: 1320

Query: What do we get for "CC(C)=CCC[C@]1(C)C=Cc2c(O)c3c(c(CC=C(C)C)c2O1)O[C@]12C(=C[C@@H]4C[C@H]1C(C)(C)O[C@@]2(C/C=C(/C)C(=O)OCCCN1CCCCC1)C4=O)C3=O" ?
Reply: 840

Query: What do we get for "CC(C)=CCC[C@]1(C)C=Cc2c(O)c3c(c(CC=C(C)C)c2O1)O[C@]12C(=C[C@@H]4C[C@H]1C(C)(C)O[C@@]2(C/C=C(/C)C(=O)OCCN1CCOCC1)C4=O)C3=O" ?
Reply: 1230

Query: What do we get for "CC(C)=CCC[C@]1(C)C=Cc2c(O)c3c(c(CC=C(C)C)c2O1)O[C@]12C(=C[C@@H]4C[C@H]1C(C)(C)O[C@@]2(C/C=C(/C)C(=O)OCCCN1CCOCC1)C4=O)C3=O" ?
Reply: 1210

Query: What do we get for "CC(C)=CCC[C@]1(C)C=Cc2c(O)c3c(c(CC=C(C)C)c2O1)O[C@]12C(=C[C@@H]4C[C@H]1C(C)(C)O[C@@]2(C/C=C(/C)C(=O)OCCN1CCCCC1)C4=O)C3=O" ?
Reply: 870

Query: What do we get for "CC(C)=CCC[C@]1(C)C=Cc2c(O)c3c(c(CC=C(C)C)c2O1)O[C@]12C(=C[C@@H]4C[C@H]1C(C)(C)O[C@@]2(C/C=C(/C)C(=O)OCCN1CCN(CCO)CC1)C4=O)C3=O" ?
Reply: 1260

Query: What do we get for "CC(C)=CCC[C@]1(C)C=Cc2c(O)c3c(c(CC=C(C)C)c2O1)O[C@]12C(=C[C@@H]4C[C@H]1C(C)(C)O[C@@]2(C/C=C(/C)C(=O)OCCCCN1CCCCC1)C4=O)C3=O" ?
Reply: 780

Query: What do we get for "CC(C)=CCC[C@]1(C)C=Cc2c(O)c3c(c(CC=C(C)C)c2O1)O[C@]12C(=C[C@@H]4C[C@H]1C(C)(C)O[C@@]2(C/C=C(/C)C(=O)O)C4=O)C3=O" ?
Reply: 13

----------
- assay_procedure: Cytotoxicity against human QGY7701 cells after 72 hrs by MTT assay
- Format: functional, cell-based
- details: QGY7701, 72 h
Consider the following molecules; for each one, report its IC50.
The response must be a number in nM with no trailing unit.

Query: What does the record list as IC50 for "CC(C)=CCC[C@]1(C)C=Cc2c(O)c3c(c(CC=C(C)C)c2O1)O[C@]12C(=C[C@@H]4C[C@H]1C(C)(C)O[C@@]2(C/C=C(/C)C(=O)OCCCCN1CCNCC1)C4=O)C3=O" ?
Reply: 4120

Query: What do we get for "CC(C)=CCC[C@]1(C)C=Cc2c(O)c3c(c(CC=C(C)C)c2O1)O[C@]12C(=C[C@@H]4C[C@H]1C(C)(C)O[C@@]2(C/C=C(/C)C(=O)OCCN1CCNCC1)C4=O)C3=O" ?
Reply: 5430

Query: What do we get for CC(C)=CCC[C@]1(C)C=Cc2c(O)c3c(c(CC=C(C)C)c2O1)O[C@]12C(=C[C@@H]4C[C@H]1C(C)(C)O[C@@]2(C/C=C(/C)C(=O)O)C4=O)C3=O [GAMBOGIC ACID] ?
Reply: 240

Query: What do we get for "CC(C)=CCC[C@]1(C)C=Cc2c(O)c3c(c(CC=C(C)C)c2O1)O[C@]12C(=C[C@@H]4C[C@H]1C(C)(C)O[C@@]2(C/C=C(/C)C(=O)OCCCCN1CCCCC1)C4=O)C3=O" ?
Reply: 4360

Query: What do we get for "CC(C)=CCC[C@]1(C)C=Cc2c(O)c3c(c(CC=C(C)C)c2O1)O[C@]12C(=C[C@@H]4C[C@H]1C(C)(C)O[C@@]2(C/C=C(/C)C(=O)OCCCCN1CCOCC1)C4=O)C3=O" ?
Reply: 530

Query: What do we get for "CC(C)=CCC[C@]1(C)C=Cc2c(O)c3c(c(CC=C(C)C)c2O1)O[C@]12C(=C[C@@H]4C[C@H]1C(C)(C)O[C@@]2(C/C=C(/C)C(=O)OCCCN1CCN(CCO)CC1)C4=O)C3=O" ?
Reply: 960

Query: What do we get for CC(=O)O[C@H]1C(=O)[C@@]2(C)[C@H]([C@H](OC(=O)c3ccccc3)[C@]3(O)C[C@H](OC(=O)[C@H](O)[C@@H](NC(=O)c4ccccc4)c4ccccc4)C(C)=C1C3(C)C)[C@]1(OC(C)=O)CO[C@@H]1C[C@@H]2O [PACLITAXEL] ?
Reply: 40

Query: What do we get for "CC(C)=CCC[C@]1(C)C=Cc2c(O)c3c(c(CC=C(C)C)c2O1)O[C@]12C(=C[C@@H]4C[C@H]1C(C)(C)O[C@@]2(C/C=C(/C)C(=O)OCCN1CCCCC1)C4=O)C3=O" ?
Reply: 700

Query: What do we get for "CC(C)=CCC[C@]1(C)C=Cc2c(O)c3c(c(CC=C(C)C)c2O1)O[C@]12C(=C[C@@H]4C[C@H]1C(C)(C)O[C@@]2(C/C=C(/C)C(=O)OCCCCN1CCN(CCO)CC1)C4=O)C3=O" ?
Reply: 2560

Query: What do we get for "CC(C)=CCC[C@]1(C)C=Cc2c(O)c3c(c(CC=C(C)C)c2O1)O[C@]12C(=C[C@@H]4C[C@H]1C(C)(C)O[C@@]2(C/C=C(/C)C(=O)OCCCN1CCNCC1)C4=O)C3=O" ?
Reply: 4380

Query: What do we get for "CC(C)=CCC[C@]1(C)C=Cc2c(O)c3c(c(CC=C(C)C)c2O1)O[C@]12C(=C[C@@H]4C[C@H]1C(C)(C)O[C@@]2(C/C=C(/C)C(=O)OCCN1CCN(CCO)CC1)C4=O)C3=O" ?
Reply: 1860

Query: What do we get for "CC(C)=CCC[C@]1(C)C=Cc2c(O)c3c(c(CC=C(C)C)c2O1)O[C@]12C(=C[C@@H]4C[C@H]1C(C)(C)O[C@@]2(C/C=C(/C)C(=O)OCCN1CCOCC1)C4=O)C3=O" ?
Reply: 410

Query: What do we get for "CC(C)=CCC[C@]1(C)C=Cc2c(O)c3c(c(CC=C(C)C)c2O1)O[C@]12C(=C[C@@H]4C[C@H]1C(C)(C)O[C@@]2(C/C=C(/C)C(=O)OCCCN1CCCCC1)C4=O)C3=O" ?
Reply: 430

Query: What do we get for "CC(C)=CCC[C@]1(C)C=Cc2c(O)c3c(c(CC=C(C)C)c2O1)O[C@]12C(=C[C@@H]4C[C@H]1C(C)(C)O[C@@]2(C/C=C(/C)C(=O)OCCCN1CCOCC1)C4=O)C3=O" ?
Reply: 120

----------
- assay_procedure: Aqueous solubility of the compound
- Format: physicochemical
- details: water (aqueous)
Consider the following molecules; for each one, report its solubility.
Give the number first and the unit second.

Query: What does the record list as solubility for "CC(C)=CCC[C@]1(C)C=Cc2c(O)c3c(c(CC=C(C)C)c2O1)O[C@]12C(=C[C@@H]4C[C@H]1C(C)(C)O[C@@]2(C/C=C(/C)C(=O)OCCCCN1CCN(CCO)CC1)C4=O)C3=O" ?
Reply: 1210 µg/mL

Query: What do we get for "CC(C)=CCC[C@]1(C)C=Cc2c(O)c3c(c(CC=C(C)C)c2O1)O[C@]12C(=C[C@@H]4C[C@H]1C(C)(C)O[C@@]2(C/C=C(/C)C(=O)OCCCN1CCN(CCO)CC1)C4=O)C3=O" ?
Reply: 1230 µg/mL

Query: What do we get for "CC(C)=CCC[C@]1(C)C=Cc2c(O)c3c(c(CC=C(C)C)c2O1)O[C@]12C(=C[C@@H]4C[C@H]1C(C)(C)O[C@@]2(C/C=C(/C)C(=O)OCCCN1CCNCC1)C4=O)C3=O" ?
Reply: 1350 µg/mL
